The reported numbers originate from patent US20260116991A1.

Below, each entry is listed alongside its reported OD450 at 0.0008 nM.
# SYSTEM TESTED: biotinylated labeled human GPC3 protein (produced in-house) (human, UniProt P51654 25-559, limits assumed, biotinylated (Dojindo, Cat. No. LK03); sites not stated)
# EXPERIMENTAL PROTOCOL: ELISA, biotinylated human GPC3 protein

>  <BINDER>
hAb007LH2L1 (antibody, human IgG1, V domains shown, Humanized F3.81.19; VH H2 + VL L1; expressed as human IgG1) VH: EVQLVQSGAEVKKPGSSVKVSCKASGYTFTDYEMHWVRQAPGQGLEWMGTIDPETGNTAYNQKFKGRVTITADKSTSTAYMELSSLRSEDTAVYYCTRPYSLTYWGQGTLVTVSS VL: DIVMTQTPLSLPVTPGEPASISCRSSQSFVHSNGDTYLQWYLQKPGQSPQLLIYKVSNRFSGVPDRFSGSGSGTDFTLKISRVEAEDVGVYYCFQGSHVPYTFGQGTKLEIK

>  <OD450 at 0.0008 nM [OD450]>
0.121

$$$$
>  <BINDER>
hAb006LH3L1b (antibody, human IgG1, V domains shown, Humanized F3.38.7; VH H3 + VL L1b; expressed as human IgG1) VH: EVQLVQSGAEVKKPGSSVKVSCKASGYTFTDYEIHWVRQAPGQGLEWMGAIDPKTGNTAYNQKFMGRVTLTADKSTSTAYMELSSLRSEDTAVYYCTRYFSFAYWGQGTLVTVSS VL: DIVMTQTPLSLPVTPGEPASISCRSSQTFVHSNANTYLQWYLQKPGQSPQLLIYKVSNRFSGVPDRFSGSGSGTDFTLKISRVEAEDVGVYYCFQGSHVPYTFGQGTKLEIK

>  <OD450 at 0.0008 nM [OD450]>
0.155

$$$$
>  <BINDER>
hAb005LH3L1b (antibody, human IgG1, V domains shown, Humanized F3.54.12; VH H3 + VL L1b; expressed as human IgG1) VH: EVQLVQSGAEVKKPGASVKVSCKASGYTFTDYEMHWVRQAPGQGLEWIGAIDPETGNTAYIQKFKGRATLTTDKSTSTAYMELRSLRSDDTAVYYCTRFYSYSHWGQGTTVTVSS VL: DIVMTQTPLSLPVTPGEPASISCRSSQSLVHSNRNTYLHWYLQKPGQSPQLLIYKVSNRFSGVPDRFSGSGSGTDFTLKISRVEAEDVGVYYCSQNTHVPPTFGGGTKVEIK

>  <OD450 at 0.0008 nM [OD450]>
0.074

$$$$
>  <BINDER>
hAb001H1aL1 (antibody, human IgG1, V domains shown, Humanized F2.169.2; VH H1a + VL L1; expressed as human IgG1) VH: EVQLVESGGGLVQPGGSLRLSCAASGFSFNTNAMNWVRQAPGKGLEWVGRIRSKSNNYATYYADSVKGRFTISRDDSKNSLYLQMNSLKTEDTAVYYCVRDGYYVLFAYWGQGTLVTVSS VL: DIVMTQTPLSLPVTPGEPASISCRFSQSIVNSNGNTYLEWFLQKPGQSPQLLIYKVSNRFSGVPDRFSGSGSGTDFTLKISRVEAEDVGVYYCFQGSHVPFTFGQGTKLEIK

>  <OD450 at 0.0008 nM [OD450]>
0.184

$$$$
>  <BINDER>
hAb006LH2L1a (antibody, human IgG1, V domains shown, Humanized F3.38.7; VH H2 + VL L1a; expressed as human IgG1) VH: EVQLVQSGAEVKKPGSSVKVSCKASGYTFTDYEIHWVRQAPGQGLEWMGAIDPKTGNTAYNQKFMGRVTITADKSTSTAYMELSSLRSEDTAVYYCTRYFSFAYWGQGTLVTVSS VL: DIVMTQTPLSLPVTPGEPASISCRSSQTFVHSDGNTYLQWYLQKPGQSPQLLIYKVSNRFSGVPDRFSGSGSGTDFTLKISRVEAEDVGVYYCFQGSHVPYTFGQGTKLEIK

>  <OD450 at 0.0008 nM [OD450]>
0.073

$$$$
